target: Gonadotropin-releasing hormone receptor (Rattus norvegicus, UniProt P30969)
Sequence (P30969 whole entry): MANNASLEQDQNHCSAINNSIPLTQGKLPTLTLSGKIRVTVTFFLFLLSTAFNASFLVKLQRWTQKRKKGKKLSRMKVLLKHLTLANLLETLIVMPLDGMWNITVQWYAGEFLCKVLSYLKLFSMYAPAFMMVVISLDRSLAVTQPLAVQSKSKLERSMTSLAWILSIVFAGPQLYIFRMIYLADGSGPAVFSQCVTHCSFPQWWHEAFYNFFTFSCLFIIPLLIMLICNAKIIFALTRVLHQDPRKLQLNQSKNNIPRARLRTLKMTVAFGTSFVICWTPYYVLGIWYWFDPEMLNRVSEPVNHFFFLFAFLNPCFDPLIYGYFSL
pIC50: −log10 of the molar value.
Known pIC50 of a selection of molecules
QUANTITY: pIC50

CHEMICAL_STRING: CCOC(=O)N1CCN(C(=O)Oc2ccc3[nH]c(-c4cc(C)cc(C)c4)c(CCNCCCCc4ccc(O)cc4)c3c2)CC1
QUANTITY: pIC50
READOUT_NUMBER: 7.49
--
CHEMICAL_STRING: CCC(=O)N1CCN(C(=O)Oc2ccc3[nH]c(-c4cc(C)cc(C)c4)c(CCNCCCCc4ccc(O)cc4)c3c2)CC1
QUANTITY: pIC50
READOUT_NUMBER: 7.82
--
CHEMICAL_STRING: CNC(=O)Oc1ccc2[nH]c(-c3cc(C)cc(C)c3)c(CCNCCCCc3ccc(O)cc3)c2c1
QUANTITY: pIC50
READOUT_NUMBER: 7.52
--
CHEMICAL_STRING: Cc1cc(C)cc(-c2[nH]c3ccc(OC(=O)N4CCN(S(=O)(=O)C(C)C)CC4)cc3c2CCNCCCCc2ccc(O)cc2)c1
QUANTITY: pIC50
READOUT_NUMBER: 8.15
--
CHEMICAL_STRING: Cc1cc(C)cc(-c2[nH]c3ccc(OC(=O)N4CCNCC4)cc3c2CCNCCCCc2ccc(O)cc2)c1
QUANTITY: pIC50
READOUT_NUMBER: 7.00
--
CHEMICAL_STRING: CC(=O)N1CCN(C(=O)Oc2ccc3[nH]c(-c4cc(C)cc(C)c4)c(CCNCCCCc4ccc(O)cc4)c3c2)CC1
QUANTITY: pIC50
READOUT_NUMBER: 7.52
--
CHEMICAL_STRING: CCCS(=O)(=O)N1CCN(C(=O)Oc2ccc3[nH]c(-c4cc(C)cc(C)c4)c(CCNCCCCc4ccc(O)cc4)c3c2)CC1
QUANTITY: pIC50
READOUT_NUMBER: 7.92
--
CHEMICAL_STRING: Cc1cc(C)cc(-c2[nH]c3ccc(OCc4ccccc4)cc3c2CCNCCCCc2ccc(O)cc2)c1
QUANTITY: pIC50
READOUT_NUMBER: 7.00

* * *

biological target: Gonadotropin-releasing hormone receptor (Rattus norvegicus, UniProt P30969)
pIC50: −log10 of the molar value.

CHEMICAL_STRING: CCCNC(=O)Oc1ccc2[nH]c(-c3cc(C)cc(C)c3)c(CCNCCCCc3ccc(O)cc3)c2c1
pIC50: 7.52

CHEMICAL_STRING: Cc1cc(C)cc(-c2[nH]c3ccc(OC(=O)N4CCN(C)CC4)cc3c2CCNCCCCc2ccc(O)cc2)c1
pIC50: 7.60

CHEMICAL_STRING: CCCC(=O)N1CCN(C(=O)Oc2ccc3[nH]c(-c4cc(C)cc(C)c4)c(CCNCCCCc4ccc(O)cc4)c3c2)CC1
pIC50: 7.52

CHEMICAL_STRING: CCNC(=O)Oc1ccc2[nH]c(-c3cc(C)cc(C)c3)c(CCNCCCCc3ccc(O)cc3)c2c1
pIC50: 7.80

CHEMICAL_STRING: Cc1cc(C)cc(-c2[nH]c3ccc(OC(=O)N4CCN(CC(N)=O)CC4)cc3c2CCNCCCCc2ccc(O)cc2)c1
pIC50: 7.57

CHEMICAL_STRING: Cc1cc(C)cc(-c2[nH]c3ccc(OC(=O)N4CCN(S(C)(=O)=O)CC4)cc3c2CCNCCCCc2ccc(O)cc2)c1
pIC50: 8.22

CHEMICAL_STRING: Cc1cc(C)cc(-c2[nH]c3ccc(OC(=O)N4CCCCC4)cc3c2CCNCCCCc2ccc(O)cc2)c1
pIC50: 7.49

CHEMICAL_STRING: COc1ccc2[nH]c(-c3cc(C)cc(C)c3)c(CCNCCCCc3ccc(O)cc3)c2c1
pIC50: 7.40

Source listed as ChEMBL document CHEMBL1134726.
